// data source = patent US8022043B2

# System: Bulk splenocytes from C57BL/6 mice
# run description: Cytokine response of splenocyte cultures (IL-4 and IFNγ ELISA)
# Assay type: cell-based
# measurement conditions: 500 nM glycolipid, 48 hours, culture supernatant ELISA; ND = below the reliable level for detection
measure name: Cytokine Response IFNγ (ng/mL)
Numeric answer only, unit ng/mL assumed.

- compound: "CCCCCCCCCCCCCCC(O)C(O)C(COC1OC(CO)C(O)C(O)C1O)NC(=O)Cc1ccccc1Cl (stereo not drawn) [YTCO3-45]"
  system: "Bulk splenocytes from C57BL/6 mice"
  unit label: "ng/mL"
  Cytokine Response IFNγ: 15.26

Record CCCCCCCCCCCCCC[C@@H](O)[C@@H](O)[C@H](CO[C@H]1O[C@H](CO)[C@H](O)[C@H](O)[C@H]1O)NC(=O)C(c1ccccc1)C1CCCC1 (stereo partly drawn) [YTCO3-50] , field Cytokine Response IFNγ: 9.47

Record CCCCCCCCCCCCCC[C@@H](O)[C@@H](O)[C@H](CO[C@H]1O[C@H](CO)[C@H](O)[C@H](O)[C@H]1O)NC(=O)Cc1cc(OC)ccc1OC [YTCO3-54] , field Cytokine Response IFNγ: 10.39
